assay: chemical genetic growth profiling, strain panel (AID 1159580);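 also: tested at 20 µM; growth read once vehicle control cultures reached saturation at 30 °C; 1 = growth at the plate median or of vehicle wells; lower values mean less growth of the strain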; conditions: S. cerevisiae deletion strains, growth OD, locus YOL012C, strain htz1
The whole screen tested about 5,500 compounds, of which about 2,000 (36%) were called active. Another 18% or so got no clear call; they are omitted. The list shows a part of the results.
readout_label: normalized growth
Please give only the number in your answer, with no unit.

OCC(O)CN1CCN(c2ccccc2)CC1 (configuration not stated) | 0.702
COC(=O)C[C@H]1C2(C)CC34OC5(C)O[C@@]6([C@H](OC(C)=O)C(OC(C)=O)[C@]7(C)C(/C(=C(/O)C(C)C)C(=O)O[C@H]7c7ccoc7)[C@@]6(O5)[C@H](OC(C)=O)[C@@]3(O)C2OC(=O)C(C)C)[C@]14C (some centres not stated) | 1.3
O=C(Oc1cc(OC(=O)c2ccccc2)c2c(c1)O[C@H](c1ccc(OC(=O)c3ccccc3)c(OC(=O)c3ccccc3)c1)[C@@H](OC(=O)c1ccccc1)C2)c1ccccc1 | 1.34
c1ccc2c(c1)CCCC2C1=NCCN1 (configuration not stated) | 0.923
CCCCCCC(C)OC(=O)COc1cc(Cl)c(Cl)cc1Cl (configuration not stated) | 1.39

*Q* Field request: normalized growth | item: `COc1ccc(C(c2ccc(OC)cc2)C(Cl)(Cl)Cl)cc1`
*A* 0.957

*Q* Request: `Cc1[nH]c2ccccc2c1CN(C)C`
*A* 1.39
